These data points were gathered from ChEMBL document CHEMBL5113409.

Epidermal growth factor receptor (Homo sapiens) IC50 data
Sequence (P00533 whole entry): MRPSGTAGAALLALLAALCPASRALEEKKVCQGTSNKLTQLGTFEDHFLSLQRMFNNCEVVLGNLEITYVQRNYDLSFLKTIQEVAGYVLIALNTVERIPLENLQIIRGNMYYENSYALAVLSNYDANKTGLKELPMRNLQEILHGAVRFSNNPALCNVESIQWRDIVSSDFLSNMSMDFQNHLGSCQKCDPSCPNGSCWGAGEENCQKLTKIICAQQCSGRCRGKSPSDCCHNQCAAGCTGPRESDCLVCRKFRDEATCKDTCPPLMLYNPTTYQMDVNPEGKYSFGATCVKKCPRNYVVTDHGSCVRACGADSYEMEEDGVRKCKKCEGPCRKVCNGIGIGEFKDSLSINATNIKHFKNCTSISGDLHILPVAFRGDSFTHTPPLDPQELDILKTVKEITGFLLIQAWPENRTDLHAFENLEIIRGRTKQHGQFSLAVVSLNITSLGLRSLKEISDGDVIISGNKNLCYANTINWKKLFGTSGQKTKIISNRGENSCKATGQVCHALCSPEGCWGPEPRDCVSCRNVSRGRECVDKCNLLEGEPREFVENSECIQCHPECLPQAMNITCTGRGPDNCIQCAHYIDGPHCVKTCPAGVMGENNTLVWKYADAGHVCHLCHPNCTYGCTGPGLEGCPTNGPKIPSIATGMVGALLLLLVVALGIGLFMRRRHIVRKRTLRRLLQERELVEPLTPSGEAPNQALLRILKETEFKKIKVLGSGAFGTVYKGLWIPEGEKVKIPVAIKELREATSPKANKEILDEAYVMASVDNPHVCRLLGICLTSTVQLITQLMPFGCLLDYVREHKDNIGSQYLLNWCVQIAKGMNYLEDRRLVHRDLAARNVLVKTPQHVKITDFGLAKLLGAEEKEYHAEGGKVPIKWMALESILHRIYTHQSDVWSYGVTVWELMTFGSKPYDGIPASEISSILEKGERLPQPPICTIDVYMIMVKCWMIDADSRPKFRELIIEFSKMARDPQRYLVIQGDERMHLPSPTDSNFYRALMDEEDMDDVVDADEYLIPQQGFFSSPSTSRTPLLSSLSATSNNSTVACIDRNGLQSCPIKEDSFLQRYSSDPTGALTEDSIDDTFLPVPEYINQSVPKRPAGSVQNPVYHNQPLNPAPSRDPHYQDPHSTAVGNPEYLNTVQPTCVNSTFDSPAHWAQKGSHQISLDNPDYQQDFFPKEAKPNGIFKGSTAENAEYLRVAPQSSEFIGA
Phrase the answer as number then unit, nothing more needed.

compound	IC50
C=CC(=O)Nc1cccc(Nc2nc(Nc3ccc(N4CCN(CC(=O)NCCNc5cccc6c5C(=O)N(C5CCC(=O)NC5=O)C6=O)CC4)cc3OC)ncc2C(F)(F)F)c1 (stereo unspecified)	839 nM
C=CC(=O)Nc1cccc(Nc2nc(Nc3ccc(N4CCN(C(=O)CCCCNc5cccc6c5C(=O)N(C5CCC(=O)NC5=O)C6=O)CC4)cc3OC)ncc2C(F)(F)F)c1 (stereo unspecified)	614 nM
C=CC(=O)Nc1cccc(Nc2nc(Nc3ccc(N4CCN(CCOCCNc5cccc6c5C(=O)N(C5CCC(=O)NC5=O)C6=O)CC4)cc3OC)ncc2C(F)(F)F)c1 (stereo unspecified)	364 nM
C=CC(=O)Nc1cccc(Nc2nc(Nc3ccc(N4CCN(CC(=O)NCCNc5cccc6c5C(=O)N(C5CCC(=O)N(C)C5=O)C6=O)CC4)cc3OC)ncc2C(F)(F)F)c1 (stereo unspecified)	1400 nM
C=CC(=O)Nc1cccc(Nc2nc(Nc3ccc(N4CCN(C(=O)CCCCCC(=O)Nc5cccc6c5C(=O)N(C5CCC(=O)NC5=O)C6=O)CC4)cc3OC)ncc2C(F)(F)F)c1 (stereo unspecified)	648 nM

// next entry
Data point: C=CC(=O)Nc1cccc(Nc2nc(Nc3ccc(N4CCN(C(=O)CCCC(=O)Nc5cccc6c5C(=O)N(C5CCC(=O)NC5=O)C6=O)CC4)cc3OC)ncc2C(F)(F)F)c1 (stereo unspecified) ; IC50 = 3230 nM
